Numbers sourced from patent US9028856B2.

- System: malaria mosquito (Anopheles gambiae)
- ASSAY EXPLANATION: Five-minute exposure bioassay, WHO Adult Mosquito Susceptibility Test Kit, treated filter paper
- Format: in vivo
- REPORTED CONDITIONS: Table 80, filter paper (mg/m^2), 45′
OUTCOME MEASURE: % knock down after 45′ (%)

>>> df
                                   molecule  result
0  CNC(=O)Oc1cccc2c1OC(C)(C)O2 [10 mg Bendiocarb]       2
1  CC1(C)[C@H](C(=O)O[C@H](C#N)c2cccc(Oc3ccccc3)c2)[C@@H]1C=C(Br)Br [40 mg DTM]     100
2  CNC(=O)Oc1cccc2c1OC(C)(C)O2 [20 mg Bendiocarb]      20
3  CC1(C)C(C=C(Br)Br)C1C(=O)OC(C#N)c1cccc(Oc2ccccc2)c1 (centres unmarked) [20 mg DTM]      79
4  CC1(C)[C@H](C(=O)O[C@H](C#N)c2cccc(Oc3ccccc3)c2)[C@@H]1C=C(Br)Br [5 mg DTM]      15
5  CC1(C)[C@H](C(=O)O[C@H](C#N)c2cccc(Oc3ccccc3)c2)[C@@H]1C=C(Br)Br [10 mg DTM]      18
6  CNC(=O)Oc1cccc2c1OC(C)(C)O2 [40 mg bendiocarb]      81
7  CNC(=O)Oc1cccc2c1OC(C)(C)O2 [5 mg Bendiocarb]       6

----------
- System: malaria mosquito (Anopheles gambiae)
- ASSAY EXPLANATION: Five-minute exposure bioassay, WHO Adult Mosquito Susceptibility Test Kit, treated filter paper
- Assay type: in vivo
- REPORTED CONDITIONS: Table 80, filter paper (mg/m^2), 15′
Cut-off 4% on % knock down after 15′: below means fulfilled, at or above means not fulfilled.

>>> print(df.to_string())
                                   molecule          label
0  CC1(C)C(C=C(Br)Br)C1C(=O)OC(C#N)c1cccc(Oc2ccccc2)c1 (centres unmarked) [20 mg DTM]  not fulfilled
1  CNC(=O)Oc1cccc2c1OC(C)(C)O2 [10 mg Bendiocarb]      fulfilled
2  CC1(C)[C@H](C(=O)O[C@H](C#N)c2cccc(Oc3ccccc3)c2)[C@@H]1C=C(Br)Br [10 mg DTM]      fulfilled
3  CNC(=O)Oc1cccc2c1OC(C)(C)O2 [5 mg Bendiocarb]  not fulfilled
4  CC1(C)[C@H](C(=O)O[C@H](C#N)c2cccc(Oc3ccccc3)c2)[C@@H]1C=C(Br)Br [40 mg DTM]  not fulfilled
5  CNC(=O)Oc1cccc2c1OC(C)(C)O2 [40 mg bendiocarb]  not fulfilled

----------
- Test system: Aedes aegypti mosquito
- ASSAY EXPLANATION: USDA Petri Dish Method, 3 min exposure to dipped fiberglass window screen
- Format: in vivo
- REPORTED CONDITIONS: 15 min; Table 39, permethrin without adjuvant (Permanone 40), dipped screen, 3 min exposure
OUTCOME MEASURE: Average % Knockdown & Mortality after 15 min (%)

                                   compound  result
0  CC1(C)C(C=C(Cl)Cl)C1C(=O)OCc1cccc(Oc2ccccc2)c1 (centres unmarked) [Permethrin (1.75%)]     100
1  CC1(C)C(C=C(Cl)Cl)C1C(=O)OCc1cccc(Oc2ccccc2)c1 (centres unmarked) [Permethrin (1.0%)]       2
2  CC1(C)C(C=C(Cl)Cl)C1C(=O)OCc1cccc(Oc2ccccc2)c1 (centres unmarked) [Permethrin (1.5%)]       2
3  CC1(C)C(C=C(Cl)Cl)C1C(=O)OCc1cccc(Oc2ccccc2)c1 (centres unmarked) [Permethrin (0.1%)]       0
4  CC1(C)C(C=C(Cl)Cl)C1C(=O)OCc1cccc(Oc2ccccc2)c1 (centres unmarked) [Permethrin (2.5%)]     100
5  CC1(C)C(C=C(Cl)Cl)C1C(=O)OCc1cccc(Oc2ccccc2)c1 (centres unmarked) [Permethrin (5%)]     100
6  CC1(C)C(C=C(Cl)Cl)C1C(=O)OCc1cccc(Oc2ccccc2)c1 (centres unmarked) [Permethrin (1.25%)]      71
7  CC1(C)C(C=C(Cl)Cl)C1C(=O)OCc1cccc(Oc2ccccc2)c1 (centres unmarked) [Permethrin (0.5%)]       0
